DOPA accumulation values for the compounds below.
# System: Rattus norvegicus
# experimentDescription: In vivo effect on DOPA accumulation in limbic and striatal regions of the rat brain without reserpine pretreatment
# Format: functional, Limbic system
# Parameters: unit not given beside the values

smilesStructure: CCCN1CCC[C@@H](c2cccc(OS(C)(=O)=O)c2)C1
DOPA accumulation: 249
--
smilesStructure: CCN1CCC[C@@H](c2cccc(OS(=O)(=O)C(F)(F)F)c2)C1
DOPA accumulation: 286
--
smilesStructure: CCCc1cccc([C@@H]2CCCN(CCC)C2)c1
DOPA accumulation: 190
--
smilesStructure: CCCN1CCC[C@@H](c2ccccc2)C1
DOPA accumulation: 140
--
smilesStructure: CC(C)N1CCC[C@@H](c2cccc(O)c2)C1
DOPA accumulation: 47
--
smilesStructure: CN1CCC[C@@H](c2cccc(OS(=O)(=O)C(F)(F)F)c2)C1
DOPA accumulation: 157
--
smilesStructure: CCCCN1CCC[C@@H](c2cccc(OS(=O)(=O)C(F)(F)F)c2)C1
DOPA accumulation: 234
